For each of the compounds below, state its pEC50.
Biological target: human GPBAR1 (Homo sapiens, UniProt Q8TDU6)
Construct: expressed in transfected cells; host or cells: HEK-293T
Sequence (Q8TDU6 1-330): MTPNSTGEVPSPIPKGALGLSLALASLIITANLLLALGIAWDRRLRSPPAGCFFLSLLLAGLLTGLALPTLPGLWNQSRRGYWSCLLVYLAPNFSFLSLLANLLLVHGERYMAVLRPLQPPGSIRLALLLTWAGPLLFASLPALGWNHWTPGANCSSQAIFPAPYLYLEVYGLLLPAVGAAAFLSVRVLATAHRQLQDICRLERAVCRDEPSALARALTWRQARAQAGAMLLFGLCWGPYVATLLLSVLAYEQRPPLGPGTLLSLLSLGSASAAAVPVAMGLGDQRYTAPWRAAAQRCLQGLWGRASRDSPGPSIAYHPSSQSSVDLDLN
Assay: GPBAR1 transactivation (cAMP responsive element luciferase reporter) in transfected HEK-293T cells
Assay type: cell-based
Conditions: HEK-293T cells transfected with GPBAR1, concentration-response, mean ± standard error
Numbers only, as −log10 of the molar value.

Sample answers from the record:
{"Compound": "CCC1C(O)C2C3CCC(C(C)CC(=O)O)C3(C)CCC2C2(C)CCCCC12 (stereo not drawn) [compound 13]", "pEC50": 5.37}
{"Compound": "CCC1C(O)C2C3CCC(C(C)CCO)C3(C)CCC2C2(C)CCC(O)CC12 (stereo not drawn) [compound 7]", "pEC50": 6.04}

Req: Entry CCC1C(O)C2C3CCC(C(C)CCCCCOS(=O)(=O)O)C3(C)CCC2C2(C)CCC(O)CC12 (stereo not drawn) [compound 19] , system human GPBAR1 (Homo sapiens, UniProt Q8TDU6): what pEC50 was measured?
Resp: 6.02
